Biological target: ALK (Homo sapiens)
Construct: purchased Millipore
Sequence (Q9UM73 19-1620): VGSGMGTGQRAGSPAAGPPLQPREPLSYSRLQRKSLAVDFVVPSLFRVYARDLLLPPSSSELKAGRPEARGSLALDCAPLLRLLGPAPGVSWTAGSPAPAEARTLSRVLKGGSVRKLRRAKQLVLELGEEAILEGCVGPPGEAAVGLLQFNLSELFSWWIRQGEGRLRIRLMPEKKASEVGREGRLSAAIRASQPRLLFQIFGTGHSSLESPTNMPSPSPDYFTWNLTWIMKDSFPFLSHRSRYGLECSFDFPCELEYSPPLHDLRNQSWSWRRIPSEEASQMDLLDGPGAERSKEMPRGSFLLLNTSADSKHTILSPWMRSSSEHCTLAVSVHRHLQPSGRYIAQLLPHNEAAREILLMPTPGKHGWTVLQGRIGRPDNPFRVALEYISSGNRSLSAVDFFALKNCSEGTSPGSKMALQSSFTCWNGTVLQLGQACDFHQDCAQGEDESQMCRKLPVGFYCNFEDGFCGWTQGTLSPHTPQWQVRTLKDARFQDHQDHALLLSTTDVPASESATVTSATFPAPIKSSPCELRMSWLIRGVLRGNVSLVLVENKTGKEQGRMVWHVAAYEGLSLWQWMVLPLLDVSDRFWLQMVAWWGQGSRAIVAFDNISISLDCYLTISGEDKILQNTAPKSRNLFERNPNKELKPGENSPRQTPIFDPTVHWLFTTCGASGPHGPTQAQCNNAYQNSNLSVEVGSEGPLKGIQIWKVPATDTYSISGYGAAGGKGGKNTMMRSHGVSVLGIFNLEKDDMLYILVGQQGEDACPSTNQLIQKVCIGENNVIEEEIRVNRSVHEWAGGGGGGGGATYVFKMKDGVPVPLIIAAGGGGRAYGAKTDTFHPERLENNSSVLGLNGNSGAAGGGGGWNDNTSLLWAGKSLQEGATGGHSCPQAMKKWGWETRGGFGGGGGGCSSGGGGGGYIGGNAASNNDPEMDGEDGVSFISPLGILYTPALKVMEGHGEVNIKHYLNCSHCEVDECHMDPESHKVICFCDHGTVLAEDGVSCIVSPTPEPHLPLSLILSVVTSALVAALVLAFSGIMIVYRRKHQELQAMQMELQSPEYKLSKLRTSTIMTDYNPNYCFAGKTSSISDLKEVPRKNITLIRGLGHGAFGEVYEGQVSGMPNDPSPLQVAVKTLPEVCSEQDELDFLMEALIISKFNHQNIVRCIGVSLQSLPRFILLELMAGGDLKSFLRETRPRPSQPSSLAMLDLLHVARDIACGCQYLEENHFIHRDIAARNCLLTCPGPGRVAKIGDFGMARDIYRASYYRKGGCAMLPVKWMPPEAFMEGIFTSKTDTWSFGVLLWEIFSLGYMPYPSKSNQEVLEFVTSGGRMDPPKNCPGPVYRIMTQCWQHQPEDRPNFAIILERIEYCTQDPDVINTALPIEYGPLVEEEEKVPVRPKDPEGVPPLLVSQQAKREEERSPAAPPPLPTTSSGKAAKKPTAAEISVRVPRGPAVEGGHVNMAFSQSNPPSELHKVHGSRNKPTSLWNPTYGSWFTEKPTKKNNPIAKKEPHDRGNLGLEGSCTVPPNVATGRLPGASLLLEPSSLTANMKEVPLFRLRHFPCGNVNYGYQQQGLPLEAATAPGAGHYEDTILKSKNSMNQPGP
Assay: ALK kinase assay (HTRF), apparent Ki
Assay type: biochemical
Details: apparent Ki from IC50 by Cheng-Prusoff; ALK (Millipore), 50 μM ATP; read-out: HTRF_ALK Human-Ki
endpoint.label: Ki

Completed entries (count: 3):
CCN1CCN(c2ccc(Nc3cc(Cc4c(F)cccc4Cl)cnc3C(N)=O)c(OC)c2)CC1: < 100 nM
COc1ccccc1Cc1cnc(C(N)=O)c(Nc2ccc(N3CCN(C)CC3)cc2)c1: 100 to 1000 nM
CN1CCN(c2ccc(Nc3cc(-c4cccc(NS(=O)(=O)c5ccn(C)n5)c4)cnc3C(N)=O)cc2)CC1: 100 to 1000 nM

Query block: Using the record for Cc1ccccc1Cc1cnc(C(N)=O)c(Nc2ccc(N3CCN(C)CC3)cc2)c1 , report its Ki.
Result block: > 1000 nM

Query block: Further, for CC(c1cccc(F)c1)c1cnc(C(N)=O)c(Nc2ccc(N3CCN(C)CC3)c(Cl)c2)c1 (stereo not shown) ?
Result block: 100 to 1000 nM

Query block: Param item: COc1cc(N2CCN(C)CC2)ccc1Nc1cc(Cc2c(F)cccc2Cl)cnc1C(N)=O
Result block: 100 to 1000 nM

Query block: Same again, this time with CN1CCN(c2ccc(Nc3cc(Cc4c(Cl)cccc4Cl)cnc3C(N)=O)cc2)CC1
Result block: < 100 nM

Query block: Consider next the compound CN1CCN(c2ccc(Nc3cc(Cc4ccccc4)cnc3C(N)=O)cc2Cl)CC1 in the same way.
Result block: 100 to 1000 nM

Query block: Please do the same for CN1CCN(c2ccc(Nc3cc(-c4ccccc4C#N)cnc3C(N)=O)cc2)CC1 as well.
Result block: > 1000 nM

Query block: Another: Cc1cc(N2CCN(C)CC2)ccc1Nc1cc(Cc2ccccc2)cnc1C(N)=O
Result block: 100 to 1000 nM

Query block: Another compound to check: CN1CCN(c2ccc(Nc3cc(-c4cccc(NS(C)(=O)=O)c4)cnc3C(N)=O)cc2)CC1
Result block: < 100 nM

Query block: And for COc1cc(N2CCNCC2)ccc1Nc1cc(C(C)c2c(Cl)cccc2Cl)cnc1C(N)=O (stereo not shown) ?
Result block: < 100 nM

Query block: Entry CN1CCN(c2ccc(Nc3cc(Cc4cccc(C(F)(F)F)c4)cnc3C(N)=O)cc2)CC1 please
Result block: 100 to 1000 nM

Query block: Can you handle CN1CCN(c2ccc(Nc3cc(Cc4cc(F)ccc4F)cnc3C(N)=O)cc2)CC1 next?
Result block: < 100 nM

Query block: Queued: Cc1ccc(Cc2cnc(C(N)=O)c(Nc3ccc(N4CCN(C)CC4)cc3)c2)cc1
Result block: 100 to 1000 nM

Query block: CN1CCN(c2ccc(Nc3cc(Cc4ccc(F)cc4)cnc3C(N)=O)cc2)CC1 , same question.
Result block: 100 to 1000 nM
